Tested on: OVCAR-3 ovarian
Experiment: NCI tumour cell line growth inhibition, 48 h
For each record, write down the corresponding TGI.

Example cases with answers are listed next.
INSERT INTO assay_data (molecule, recorded_endpoint, result) VALUES
  ('Cc1nc(C(N)=O)c(N)n1CCN1CCN(C(=O)CCCCCCCCCCNC2N=CNc3nc[nH]c32)CC1 (centres undefined)', 'TGI', '> 100 µM'),
  ('O=C1CC(CC(=O)C2CCCCC2=O)C(=O)N1 (centres undefined)', 'TGI', '> 100 µM'),
  ('CCc1c(C#N)c(=O)[nH]c(=O)n1CCN1CCN(C(=O)NCCCCCCNC(=O)N2CCN(CCn3c(CC)c(C#N)c(=O)[nH]c3=O)CC2)CC1', 'TGI', '> 100 µM');

Consider the molecule COC(=O)C1=CO[C@@H](OC2CC(CO)C(O)C(O)C2O)[C@@H]2[C@@H](C)[C@@H](OC(=O)/C=C/c3ccccc3)[C@@H](O)[C@H]12 (some centres undefined) (tested in a mixture with another compound) tested on OVCAR-3 ovarian; state its TGI.
> 100 µM

From: PubChem BioAssay (NCI)
